Measured values drawn from PubChem BioAssay (NCI) for this set.

- Tested on: NCI-H522 lung
- assay-method-text: NCI-60 one-dose screen, 48 h (100 = growth as untreated, 0 = no growth, -100 = all killed)
- experimental-conditions: 10 µM unless noted
This is part of a sample that, as a whole, favours compounds with a hit. Of some 83,000 tested, about 20% had one in any assay.
Record 1.0 whenever growth is at 70% or higher; record 0.0 when lower.

# input Does `Clc1ccccc1CNc1c2ccccc2nc2ccccc12` have a reported growth of at least 70%?
# output 0.0

# input Try `Nc1c(C(=O)C[C@@H](N)CO)ccc2c1C(=O)CCO2` next.
# output 0.0

# input Try `CCCCCCCC/C=C/CCCCCCCC1=NC(C)(C)CN1c1ccccc1` next.
# output 0.0

# input Try `COc1cc(NC(=O)CSc2nc3ccc(Cl)cc3c(=O)n2Cc2ccccc2)cc(OC)c1OC` next.
# output 0.0

# input Try `CN(C)c1ccc(/C=C\c2cccc[n+]2C)cc1` next.
# output 0.0

# input Try COc1cc(C2CC(c3ccccc3)=NN2C=O)ccc1Oc1nc2c(c(=O)n(C)c(=O)n2C)n1C (stereo unspecified) next.
# output 1.0

# input Try `CCN(CC)CC(=O)Nc1c(C)ccc(N)c1C` next.
# output 1.0

# input Try `Fc1ccc(-c2nc(-c3ccc(-c4nc5ccc(F)cc5[nH]4)cc3)no2)cc1` next.
# output 1.0

# input Try `CCN(CC)Cc1cc(Nc2ccnc3ccc(OC)cc23)ccc1O` next.
# output 0.0

# input Try CCCCCCCCCCCCC1CCC(=O)O1 (stereo unspecified) next.
# output 1.0
